Cited source for all entries: patent US9049865B2

- Test system: Ganoderma boninense
- procedure_text: Microtiter plate growth test of Ganoderma boninense mycelium in potato-dextrose broth, absorption by photometer
- Type: cell-based
- protocol_conditions: Ganoderma boninense, 312 h, G. boninense, low mycelial density, after 13 days, single determinations; read-out: EC50 data
What EC50 was measured for each of the following?

QUERY: Name the reported EC50 value associated with the compound O=c1c2cc(F)ccc2nc(-n2cncn2)n1-c1ccc(Cl)cc1Cl [Fluquinconazole]
RESULT: 0.0591 µg/mL

QUERY: Now this one: CC(C)(C)C(O)C(Oc1ccc(Cl)cc1)n1cncn1 (stereo not shown) [Triadimenol]
RESULT: 0.103 µg/mL

QUERY: Also check CC(C)(C)C(O)(CCc1ccc(Cl)cc1)Cn1cncn1 (stereo not shown) [Tebuconazole]
RESULT: 0.0086 µg/mL

QUERY: What do we get for CC(C)(C)C(O)C(Oc1ccc(-c2ccccc2)cc1)n1cncn1 (stereo not shown) [Bitertanol] ?
RESULT: 0.118 µg/mL
